Test system: SH-SY5Y cells
Conditions: human, SH-SY5Y cells, 24 h, 1 µM
measured property: AK

                                   molecule  test_result
0  O=C(Nc1n[nH]c2nc(-c3cccc(O)c3)ccc12)C1CC1       105.72
1   O=C(Nc1n[nH]c2nc(-c3ccccc3O)ccc12)C1CC1        88.20
2  COc1cccc(C2=C(Nc3cc(Cl)c(O)c(Cl)c3)C(=O)NC2=O)c1 [UNC10225267A]       136.91

###

Tested on: endogenous TFE3
Assay: TFE3 nuclear translocation, immunocytochemistry high-content imaging
Assay type: cell-based
Details: PKIS2 primary screening
measured property: TFE3 % (%)

>>> print(df.to_string())
                                    compound  u  test_result
 0  Cl.c1ccc(-c2n[nH]cc2-c2ccnc(-c3ccc(CN4CCOCC4)cc3)c2)nc1 [UNC10225251A]  %         7.21
 1  NC(=O)Nc1sc(-c2ccc(F)cc2)cc1C(N)=O [UNC10225118A]  %        11.46
 2  CC(C)(CN)c1nc(-c2ccc(Cl)c(O)c2)c(-c2ccncc2)[nH]1.O=C(O)C(F)(F)F [UNC10225206A]  %         7.79
 3  c1ccc(Oc2ccc(Nc3ccnc4ccc(-c5ccccn5)cc34)cc2)cc1 [UNC10225215A]  %        13.98
 4  Cc1cc(N2CCC(NS(=O)(=O)c3ccc(F)cc3)CC2)nc(Nc2cccc(C#N)c2)n1  %        18.21
 5  Fc1cc(Cl)ccc1Nc1ccnc2cc(-c3ccc(CN4CCCCC4)o3)ccc12 [UNC10225220A]  %        18.00
 6  Cc1ccc(NC(=O)Nc2ccc(Cl)cc2)cc1-c1ccc(C(=O)Nc2ccncc2)cc1 [UNC10225388A]  %        28.63
 7  COCCNC(=O)c1ccc(-c2cc(C(=O)NC3CC3)cc(F)c2C)cc1 [UNC10225229A]  %         7.62
 8  COC(=O)Nc1nc2ccc(Oc3ccc(CC(=O)Nc4cc(C(F)(F)F)ccc4F)cc3)cc2[nH]1  %        12.77
 9  O=C(Nc1ccccc1F)NC1CCN(c2ccnc(Nc3ccc(F)cc3)n2)CC1  %         9.18
10  COc1cccc(NC(=O)NCCNc2ccnc(Nc3ccc(F)cc3)n2)c1  %        16.07
11  N#Cc1ccc(CCNc2nccc(-c3cccc(CN4CCNCC4)c3)n2)cc1  %        23.49
12  COc1ccc(C[C@@H](CN)NC(=O)c2cc(Br)c(-c3ccnc4[nH]ccc34)s2)cc1.Cl.Cl [UNC10225412A, reference compound]  %        22.21
13  COc1cc(Nc2nccc(N3CCC(NC(=O)C(C)c4ccc(Cl)cc4)C3)n2)cc(OC)c1OC (stereo not drawn)  %        15.24
14  CC(C)c1nc(-c2cccc(NS(=O)(=O)c3c(F)cccc3F)c2)c(-c2ccnc(Nc3ccc(N4CCOCC4)nc3)n2)s1.Cl [UNC10225142A]  %        11.69
15  Cc1ccc(O)cc1Nc1ccnc2ccc(C(C)(C)C)cc12 [UNC10225479A]  %        19.57
16  FC(F)(F)c1cc(Nc2nccc(-c3c(-c4ccc(Cl)cc4)nn4ncccc34)n2)ccc1Cl [UNC10225192A]  %        11.31
17  Fc1ccc(Nc2nccc(-c3c(-c4ccc(Cl)cc4)nn4ncccc34)n2)cc1F [UNC10225073A]  %        12.07
18  O=C(Nc1cccc(-c2nn3ccccc3c2-c2ccnc(Nc3cccc(F)c3)n2)c1)c1c(F)ccc(F)c1Cl [UNC10225081A]  %        13.17
19  O=C(Nc1cccc(-c2nn3ncccc3c2-c2ccnc(Nc3cccc(C(F)(F)F)c3)n2)c1)c1c(F)cccc1F [UNC10225174A]  %        11.86
20  CCCc1ccc(S(=O)(=O)NC2CCN(c3ccnc(Nc4ccc(OC)cc4)n3)C2)cc1 (stereo not drawn)  %        12.75
21  O=c1cc(N2CCOCC2)nc2n(Cc3cccc(Cl)c3Cl)ccn12 [UNC10225167A]  %        15.96
22  CSc1nccc(-c2c(-c3ccc(F)cc3)ncn2CCCN2CCOCC2)n1.Cl [UNC10225426A]  %         5.71
23  CC(=O)c1cccc(NC(=O)NC2CCN(c3ccnc(Nc4ccc(F)cc4)n3)C2)c1 (stereo not drawn)  %        16.11
24  Cc1cc(-c2ccnc(Nc3cccc(C#N)c3)n2)cc(C)c1O  %        21.61
25  CC(C)NCC(Cc1ccccc1)NC(=O)c1cc(Br)c(-c2ccnc3[nH]ccc23)s1.Cl.Cl (stereo not drawn) [UNC10225078A]  %        47.42
26  CCn1cnc2c(NCc3ccccc3)ncnc21 [UNC10225370A]  %        13.91
